Catalogue of EPO/EBP-Ig % inh @ 50 μM readings, one per entry.
- Tgt: EBP-Ig (N-terminal 225 amino acids of the human EPO receptor joined to an Ig heavy chain) (Homo sapiens, UniProt P19235)
- Construct: Ig heavy chain (fusion partner); made in house; host or cells: NSO cells (secreted into conditioned media)
- Experimental Details: Inhibition of [125I]EPO binding to immobilized EBP-Ig (EPO binding protein-Ig), scintillation Flash plate competition assay
- Condition Label: 50 μM compound; Table 20A

See these solved cases before continuing.
Smiles String: COC(=O)[C@H](CO)NC/C=C/c1cccc(Oc2cccc(C(F)(F)F)c2)c1.O=C(O)C(F)(F)F
EPO/EBP-Ig % inh @ 50 μM: 4%

Smiles String: COC(=O)[C@H](CO)NCC=Cc1cccc(Oc2ccccc2)c1
EPO/EBP-Ig % inh @ 50 μM: 28%

Smiles String: COC(=O)[C@H](COC(C)(C)C)NC/C=C/c1cccc(Oc2cccc(C(F)(F)F)c2)c1
EPO/EBP-Ig % inh @ 50 μM: 22%

query: # EPO/EBP-Ig % inh @ 50 μM lookup, item O=C(O)C(F)(F)F.O=C(O)[C@H](CO)NC/C=C/c1cccc(Oc2cccc(C(F)(F)F)c2)c1
result: 23%

###

Catalogue of IC50 readings, one per entry.
- Tgt: EBP-Ig (N-terminal 225 amino acids of the human EPO receptor joined to an Ig heavy chain) (Homo sapiens, UniProt P19235)
- Construct: Ig heavy chain (fusion partner); made in house; host or cells: NSO cells (secreted into conditioned media)
- Experimental Details: Inhibition of [125I]EPO binding to immobilized EBP-Ig (EPO binding protein-Ig), scintillation Flash plate competition assay
- Procedure: The interaction of biotin and streptavidin is frequently employed to capture and effectively immobilize reagents useful in assay protocols and has been employed here as a simple method to capture and immobilize EBP-Ig. […] The amount of light produced was quantified to estimate the amount of ligand binding. […] All wells were adjusted to a final DMSO concentration of 5%. […] Corrected total binding (CTB) was calculated as: TB−NSB=CTB. […]
The answer is to be given in µM; state only the numeric part.

See these solved cases before continuing.
Molecule: CCCCC(=O)Nc1cccc(CN(Cc2cccc(Oc3ccccc3)c2)C(CCC(=O)O)C(=O)NCCOCCOCCNC(=O)C(CCC(=O)O)N(Cc2cccc(NC(=O)CCCC)c2)Cc2cccc(Oc3ccccc3)c2)c1 (stereo not shown) [cpd 247]
Value Units: µM
Reported: 18

Molecule: O=C(O)CC(C(=O)O)N(C/C=C/c1cccc(Oc2ccccc2)c1)Cc1cccc(Oc2ccccc2)c1 (stereo not shown) [compound 77]
Value Units: µM
Reported: 40

Molecule: Cc1ccc(S(=O)(=O)Nc2cccc(CN(Cc3cccc(Oc4ccccc4)c3)C(CCC(=O)O)C(=O)NCCOCCOCCNC(=O)C(CCC(=O)O)N(Cc3cccc(NS(=O)(=O)c4ccc(C)cc4)c3)Cc3cccc(Oc4ccccc4)c3)c2)cc1 (stereo not shown) [compound 250]
Value Units: µM
Reported: 20

Attention now shifts to the item below.
query: # IC50 lookup, item O=C(O)CC(C(=O)NCCCOCCOCCOCCCNC(=O)C(CC(=O)O)N(Cc1ccc(OCc2ccccc2)cc1)Cc1ccc(OCc2ccccc2)cc1)N(Cc1ccc(OCc2ccccc2)cc1)Cc1ccc(OCc2ccccc2)cc1 (stereo not shown) [compound 244]
result: 28

###

Catalogue of EPO/EBP-Ig % inh @ 50 μM readings, one per entry.
- Tgt: EBP-Ig (N-terminal 225 amino acids of the human EPO receptor joined to an Ig heavy chain) (Homo sapiens)
- Construct: Ig heavy chain (fusion partner); made in house; host or cells: NSO cells (secreted into conditioned media)
- Experimental Details: Inhibition of [125I]EPO binding to immobilized EBP-Ig (EPO binding protein-Ig), scintillation Flash plate competition assay
- Condition Label: 50 μM compound; Table 10
The answer is to be given in %; state only the numeric part.

Molecule: CC(C)(C)OC(=O)NCCCCC(C(=O)NCc1ccc(OCC=Cc2ccccc2)cc1)N(CC=Cc1ccccc1)CC=Cc1ccccc1 (centres unmarked)
Value Units: %
EPO/EBP-Ig % inh @ 50 μM: 10

Attention now shifts to the item below.
query: # EPO/EBP-Ig % inh @ 50 μM lookup, item CCCCNC(=O)C(CCCCN)N(C/C=C/c1ccccc1)C/C=C/c1ccccc1 (centres unmarked)
result: 26

###

- Tgt: EBP-Ig (N-terminal 225 amino acids of the human EPO receptor joined to an Ig heavy chain) (Homo sapiens, UniProt P19235)
- Construct: Ig heavy chain (fusion partner); made in house; host or cells: NSO cells (secreted into conditioned media)
- Experimental Details: Inhibition of [125I]EPO binding to immobilized EBP-Ig (EPO binding protein-Ig), scintillation Flash plate competition assay
- Condition Label: 50 μM compound
Attribute Measured: EPO/EBP-Ig % inh @ 50 μM (%)
The answer is to be given in %; state only the numeric part.

See these solved cases before continuing.
Molecule: COC(=O)[C@H](Cc1ccccc1)NC/C=C/c1ccccc1
Attribute Measured: EPO/EBP-Ig % inh @ 50 μM
Value Units: %
Reported: 18
--
Molecule: COC(=O)[C@H](C)NC/C=C/c1ccccc1
Attribute Measured: EPO/EBP-Ig % inh @ 50 μM
Value Units: %
Reported: 0

query: # EPO/EBP-Ig % inh @ 50 μM lookup, item CC(=O)O.COC(=O)c1cccc(C=CCNC(C(=O)OC)C(C)C)c1 (stereo not drawn)
result: 16

query: # EPO/EBP-Ig % inh @ 50 μM lookup, item CC(C)C[C@H](NC/C=C/c1ccc(C(F)(F)F)cc1)C(=O)O.O=C(O)C(F)(F)F
result: 12

query: # EPO/EBP-Ig % inh @ 50 μM lookup, item CC(=O)O.COC(=O)CC(NCC=Cc1cccc(C(=O)OC)c1)C(=O)OC (stereo not drawn)
result: 38

query: # EPO/EBP-Ig % inh @ 50 μM lookup, item COC(=O)[C@H](Cc1c[nH]c2ccccc12)NC/C=C/c1ccccc1
result: 16

query: # EPO/EBP-Ig % inh @ 50 μM lookup, item CC(C)[C@H](NC/C=C/c1ccc(C(F)(F)F)cc1)C(=O)O.O=C(O)C(F)(F)F
result: 0

query: # EPO/EBP-Ig % inh @ 50 μM lookup, item CSCC[C@H](NC/C=C/c1ccc(C(F)(F)F)cc1)C(=O)O.O=C(O)C(F)(F)F
result: 0

query: # EPO/EBP-Ig % inh @ 50 μM lookup, item CC(=O)O.COC(=O)c1cccc(/C=C/CN[C@@H](Cc2ccccc2)C(=O)OC)c1
result: 24

###

- Tgt: EBP-Ig (N-terminal 225 amino acids of the human EPO receptor joined to an Ig heavy chain) (Homo sapiens, UniProt P19235)
- Construct: Ig heavy chain (fusion partner); made in house; host or cells: NSO cells (secreted into conditioned media)
- Sequence (P19235 25-250 limits assumed): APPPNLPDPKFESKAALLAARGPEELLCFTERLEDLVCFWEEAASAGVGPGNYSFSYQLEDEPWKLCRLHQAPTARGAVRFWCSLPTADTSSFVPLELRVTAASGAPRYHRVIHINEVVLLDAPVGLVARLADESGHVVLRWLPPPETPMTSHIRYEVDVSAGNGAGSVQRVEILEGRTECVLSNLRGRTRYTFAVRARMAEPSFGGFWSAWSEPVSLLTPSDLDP
- Experimental Details: Inhibition of [125I]EPO binding to immobilized EBP-Ig (EPO binding protein-Ig), scintillation Flash plate competition assay
- Condition Label: 50 μM compound; Table 19A
Binary call on EPO/EBP-Ig % inh @ 50 μM: label 1 from 20% upward, label 0 beneath that.

Molecule: COC(=O)C(CCC(=O)O)NCC=Cc1cccc(Oc2ccccc2)c1 (stereo not shown) [cpd 325, N-(3-Phenoxycinnamyl)Glu-OMe]
Class Name: label 0

query: For this molecule, is measured EPO/EBP-Ig % inh @ 50 μM 20% or higher? COC(=O)C(CCC(=O)OC(C)(C)C)NCC=Cc1cccc(Oc2ccccc2)c1 (stereo not shown) [cpd 334, N-(3-phenoxycinnamyl)Glu(O-t-Bu)-OMe]
result: label 0

query: For this molecule, is measured EPO/EBP-Ig % inh @ 50 μM 20% or higher? COC(=O)[C@H](CCC(=O)OC(C)(C)C)NC/C=C/c1ccc(-c2ccccc2)cc1 [compound 335]
result: label 1

query: For this molecule, is measured EPO/EBP-Ig % inh @ 50 μM 20% or higher? O=C(O)C(F)(F)F.O=C(O)CC[C@H](NC/C=C/c1cccc(Oc2ccc(Cl)c(Cl)c2)c1)C(=O)O [compound 332]
result: label 0

query: For this molecule, is measured EPO/EBP-Ig % inh @ 50 μM 20% or higher? CC(C)(C)OC(=O)CCC(NCC=Cc1cccc(Oc2ccccc2)c1)C(=O)O (stereo not shown) [cpd 337, N-(3-Phenoxycinnamyl)Glu(O-t-Bu)-OH]
result: label 0

query: For this molecule, is measured EPO/EBP-Ig % inh @ 50 μM 20% or higher? O=C(O)C(F)(F)F.O=C(O)CC[C@H](NC/C=C/c1cccc(Oc2cccc(C(F)(F)F)c2)c1)C(=O)O [compound 330]
result: label 0

query: For this molecule, is measured EPO/EBP-Ig % inh @ 50 μM 20% or higher? CC(C)(C)OC(=O)CC[C@H](NC/C=C/c1cccc(Oc2ccc(C(C)(C)C)cc2)c1)C(=O)OC(C)(C)C [compound 339]
result: label 0

query: For this molecule, is measured EPO/EBP-Ig % inh @ 50 μM 20% or higher? COC(=O)[C@H](CCC(=O)OC(C)(C)C)NC/C=C/c1ccc2ccccc2c1 [compound 333]
result: label 0
